- Test description: In vivo pharmacokinetic study in SD rats
- Measurement context: SD rat, PO 5 mg/kg, plasma; read-out: Maximal concentration Cmax
Reported endpoint: Cmax (ng/mL)
Just the number please, in ng/mL, no unit attached.

## Task What value of measured Cmax is listed for Nc1c(-c2ccc3nccnc3c2)c(=O)n(-c2ccc(Cl)cc2)c2nc(C(F)(F)F)ccc12 ?
## Result 4140

* * *

- Test description: In vivo pharmacokinetic study in SD rats
- Measurement context: SD rat, IV 1 mg/kg, plasma; read-out: Area under curve AUC(0-t)
Reported endpoint: AUC(0-t) (ng·h/mL)
Just the number please, in ng·h/mL, no unit attached.

## Task What value of measured AUC(0-t) is listed for Nc1c(-c2ccc3nccnc3c2)c(=O)n(-c2ccc(Cl)cc2)c2nc(C(F)(F)F)ccc12 ?
## Result 17600

* * *

Below: a set of entries, each annotated with reported pIC50.
- Measured target: MAT2a (Homo sapiens (Human))
Field pIC50 (float): negative decimal logarithm of the concentration in molar.

As a guide, the following entries are already answered.
Cc1ccc(-n2c(=O)c(-c3ccc4nn(C)cc4c3)c(N)c3ccc(C(F)(F)F)nc32)cc1 [Example 89]	7.78
Nc1c(-c2ccc3ncoc3c2)c(=O)n(-c2ccc(Cl)cc2)c2nc(C(F)(F)F)ccc12 [Example 22]	7.82

Turning to the following molecule.
## Task # returns recorded pIC50 (system: MAT2a (Homo sapiens (Human))) for Nc1c(-c2ccc(F)cc2)c(=O)n(-c2ccc(Br)cc2)c2nc(C(F)(F)F)ccc12 [Example 84]
## Result 7.55

* * *

- Test description: In vivo pharmacokinetic study in ICR mice
- Measurement context: mouse, PO 10 mg/kg, plasma, read-out: Maximal concentration Cmax
Reported endpoint: Cmax (ng/mL)
Just the number please, in ng/mL, no unit attached.

## Task What value of measured Cmax is listed for Nc1c(-c2ccc3nccnc3c2)c(=O)n(-c2ccc(Cl)cc2)c2nc(C(F)(F)F)ccc12 ?
## Result 18100

* * *

- Test description: In vivo pharmacokinetic study in ICR mice
- Measurement context: mouse, IV 2 mg/kg, plasma, read-out: Area under curve AUC(0-t)
Reported endpoint: AUC(0-t) (ng·h/mL)
Just the number please, in ng·h/mL, no unit attached.

## Task What value of measured AUC(0-t) is listed for Nc1c(-c2ccc3nccnc3c2)c(=O)n(-c2ccc(Cl)cc2)c2nc(C(F)(F)F)ccc12 [Example 36] ?
## Result 31700

* * *

Parameter pIC50, tested on MAT2a (Homo sapiens (Human), UniProt P31153), listed per item.
Sequence (P31153 whole entry): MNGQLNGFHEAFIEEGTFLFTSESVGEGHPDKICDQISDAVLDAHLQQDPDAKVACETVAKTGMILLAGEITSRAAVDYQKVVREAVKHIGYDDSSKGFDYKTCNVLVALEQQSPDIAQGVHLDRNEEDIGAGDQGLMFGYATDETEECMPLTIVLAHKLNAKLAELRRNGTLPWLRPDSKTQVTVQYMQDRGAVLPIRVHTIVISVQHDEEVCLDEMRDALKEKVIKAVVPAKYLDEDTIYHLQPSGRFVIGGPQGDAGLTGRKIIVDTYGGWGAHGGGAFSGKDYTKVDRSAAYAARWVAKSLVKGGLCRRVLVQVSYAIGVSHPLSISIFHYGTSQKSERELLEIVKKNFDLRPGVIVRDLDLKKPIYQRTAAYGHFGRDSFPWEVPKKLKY
Field pIC50 (float): negative decimal logarithm of the concentration in molar.

As a guide, the following entries are already answered.
Nc1c(-c2ccc3nnccc3c2)c(=O)n(-c2ccc(Cl)cc2)c2nc(C(F)(F)F)ccc12	7.79
Nc1c(-c2ccc3nn[nH]c3c2)c(=O)n(-c2ccc(Cl)cc2)c2nc(C(F)(F)F)ccc12	7.79
Nc1c(-c2ccc3nonc3c2)c(=O)n(-c2ccc(Cl)cc2)c2nc(C(F)(F)F)ccc12	7.78
Nc1c(-n2cccn2)c(=O)n(-c2ccc(Cl)cc2)c2nc(C(F)(F)F)ccc12	7.74
Nc1c(-c2cncs2)c(=O)n(-c2ccc(Cl)cc2)c2nc(C(F)(F)F)ccc12	7.69
CNc1c(-c2ccoc2)c(=O)n(-c2ccccc2)c2nc(C(F)(F)F)ccc12	7.67
Nc1c(-c2ccccc2)c(=O)n(-c2ccc(Cl)cc2)c2nc(C(F)(F)F)ccc12	7.82
Cn1nc2ccc(-c3c(N)c4ccc(C(F)(F)F)nc4n(-c4ccc(Cl)cc4)c3=O)cc2n1	7.81

## Task What value of measured pIC50 is listed for Nc1c(-c2ccc(F)cc2)c(=O)n(-c2ccc(Cl)cc2)c2nc(C(F)(F)F)ccc12 ?
## Result 7.82

## Task What value of measured pIC50 is listed for CN(C)CCn1cc2cc(-c3c(N)c4ccc(C(F)(F)F)nc4n(-c4ccc(Cl)cc4)c3=O)ccc2n1 ?
## Result 7.78
